Source listed as patent US20120107330A1.

target.of.assay: T1, human TNFR1 on MRC-5 cells (human, UniProt P19438 30-455)
T1 sequence (looked up): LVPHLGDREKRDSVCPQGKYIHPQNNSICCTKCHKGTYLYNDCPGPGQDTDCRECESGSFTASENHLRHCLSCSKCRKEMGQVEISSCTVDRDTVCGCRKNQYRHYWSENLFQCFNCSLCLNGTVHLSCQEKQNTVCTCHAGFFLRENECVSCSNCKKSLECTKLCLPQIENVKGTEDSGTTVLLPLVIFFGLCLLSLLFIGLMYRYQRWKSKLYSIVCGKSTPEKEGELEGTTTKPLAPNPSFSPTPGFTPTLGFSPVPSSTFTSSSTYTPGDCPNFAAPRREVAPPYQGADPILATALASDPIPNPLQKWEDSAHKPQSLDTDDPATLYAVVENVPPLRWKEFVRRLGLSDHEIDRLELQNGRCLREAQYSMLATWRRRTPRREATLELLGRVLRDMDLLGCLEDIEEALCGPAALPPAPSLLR
method.summary: cell-based or functional assay
I would appreciate it if you labelled entries fulfilled when MRC5 (ND50 in nM) is 3 nM or higher, otherwise not fulfilled.

# input Entry DMS0114 (bispecific antibody) EVQLLESGGGLVQPGGSLRLSCAASGFTFVKYSMGWVRQAPGKGLEWVSQISNTADRTYYAHSVKGRFTISRDNSKNTLYLQMNSLRAEDTAVYYCAIYTGRWVPFEYWGQGTLVTVSSASTDIQMTQSPSSLSASVGDRVTITCRASQWIGSQLSWYQQKPGKAPKLLIMWRSSLQSGVPSRFSGSGSGTDFTLTISSLQPEDFATYYCAQGLMKPMTFGQGTKVEIKR : is its MRC5 (ND50 in nM) no less than 3 nM?
# output fulfilled

# input Entry DMS0118 (bispecific antibody, anti-TNFR1 dAb / AlbudAb in-line fusion) EVQLLESGGGLVQPGGSLRLSCAASGFTFVKYSMGWVRQAPGKGLEWVSQISNTADRTYYAHSVKGRFTISRDNSKNTLYLQMNSLRAEDTAVYYCAIYTGRWVPFEYWGQGTLVTVSSASTSGPSDIQMTQSPSSLSASVGDRVTITCRASQWIGSQLSWYQQKPGKAPKLLIMWRSSLQSGVPSRFSGSGSGTDFTLTISSLQPEDFATYYCAQGLMKPMTFGQGTKVEIKR : is its MRC5 (ND50 in nM) no less than 3 nM?
# output not fulfilled

# input Entry DOM1h-574-72 (other, VH dAb; expressed in E. coli, purified on Protein A) VH: EVQLLESGGGLVQPGGSLRLSCAASGFTFVKYSMGWVRQAPGKGLEWVSQISNTADRTYYAHSVKGRFTISRDNSKNTLYLQMNSLRAEDTAVYYCAIYTGRWVPFEYWGQGTLVTVSS : is its MRC5 (ND50 in nM) no less than 3 nM?
# output not fulfilled

# input Entry DMS0121 (bispecific antibody, anti-TNFR1 dAb / AlbudAb in-line fusion) EVQLLESGGGLVQPGGSLRLSCAASGFTFVKYSMGWVRQAPGKGLEWVSQISNTADRTYYAHSVKGRFTISRDNSKNTLYLQMNSLRAEDTAVYYCAIYTGRWVPFEYWGQGTLVTVSSASGGGGSGGGGSGGGGSDIQMTQSPSSLSASVGDRVTITCRASRPIGTTLSWYQQKPGKAPKLLILWNSRLQSGVPSRFSGSGSGTDFTLTISSLQPEDFATYYCAQAGTHPTTFGQGTKVEIKR : is its MRC5 (ND50 in nM) no less than 3 nM?
# output not fulfilled

# input Entry DMS0116 (bispecific antibody, anti-TNFR1 dAb / AlbudAb in-line fusion) EVQLLESGGGLVQPGGSLRLSCAASGFTFVKYSMGWVRQAPGKGLEWVSQISNTADRTYYAHSVKGRFTISRDNSKNTLYLQMNSLRAEDTAVYYCAIYTGRWVPFEYWGQGTLVTVSSASTSGPSDIQMTQSPSSLSASVGDRVTITCRASRPIGTMLSWYQQKPGKAPKLLILFGSRLQSGVPSRFSGSGSGTDFTLTISSLQPEDFATYYCAQAGTHPTTFGQGTKVEIKR : is its MRC5 (ND50 in nM) no less than 3 nM?
# output not fulfilled

# input Entry DMS0123 (bispecific antibody) EVQLLESGGGLVQPGGSLRLSCAASGFTFVKYSMGWVRQAPGKGLEWVSQISNTADRTYYAHSVKGRFTISRDNSKNTLYLQMNSLRAEDTAVYYCAIYTGRWVPFEYWGQGTLVTVSSASGGGGSGGGGSGGGGSDIQMTQSPSSLSASVGDRVTITCRASQWIGSQLSWYQQKPGKAPKLLIMWRSSLQSGVPSRFSGSGSGTDFTLTISSLQPEDFATYYCAQGLRHPKTFGQGTKVEIKR : is its MRC5 (ND50 in nM) no less than 3 nM?
# output fulfilled
